Entries and their log10 of GI50
- Tested on: K562
- Test name: Cytotoxicity against human K562 cells after 48 hrs by SRB assay
- Assay type: functional
- Particulars: K562, 48 h
Form field - Quantity: GI50; Unit: nM; Scale: log10

- Smiles string: "C/C=C1\\NC(=O)[C@H](Cc2ccccc2)NC(=O)[C@@H](C(C)C)NC(=O)[C@@H]([C@H](C)CC)NC(=O)[C@H](NC(=O)[C@H](NC(=O)[C@H](CCCN)NC(=O)[C@H]2CCCN2C(=O)[C@H](NC(=O)[C@@H](NC(=O)[C@@H](NC(=O)[C@@H](CC(C)C)NC(=O)CCCC(C)C)[C@@H](C)O)C(C)C)C(C)C)[C@H](C)CC)[C@H](C)OC(=O)[C@H](C(C)C)NC1=O"
  Experimental system: "K562"
  Meas value: 3.43

Notebook: C/C=C1\NC(=O)[C@H](Cc2ccccc2)NC(=O)[C@@H](C(C)C)NC(=O)[C@@H]([C@H](C)CC)NC(=O)[C@H](NC(=O)[C@H](NC(=O)[C@H](CCCN)NC(=O)[C@H]2CCCN2C(=O)[C@H](NC(=O)[C@@H](NC(=O)[C@@H](NC(=O)[C@@H](CCCN)NC(=O)CCCC(C)C)[C@@H](C)O)C(C)C)C(C)C)[C@H](C)CC)[C@H](C)OC(=O)[C@H](C(C)C)NC1=O , log10 of GI50 read as 2.94

Notebook: C/C=C1\NC(=O)[C@H](Cc2ccccc2)NC(=O)[C@@H](C(C)C)NC(=O)[C@@H]([C@H](C)CC)NC(=O)[C@H](NC(=O)[C@H](NC(=O)[C@H](CCCN)NC(=O)[C@H]2CCCN2C(=O)[C@H](NC(=O)[C@@H](NC(=O)[C@@H](NC(=O)[C@H](NC(=O)CCCCCCCCCCCCCCC)C(C)C)[C@@H](C)O)C(C)C)C(C)C)[C@H](C)CC)[C@H](C)OC(=O)[C@H](C(C)C)NC1=O , log10 of GI50 read as 2.09

Lab note: measured log10 of GI50 of C/C=C1\NC(=O)[C@H](Cc2ccccc2)NC(=O)[C@@H](C(C)C)NC(=O)[C@@H]([C@H](C)CC)NC(=O)[C@H](NC(=O)[C@H](NC(=O)[C@H](CCCN)NC(=O)[C@H]2CCCN2C(=O)[C@H](NC(=O)[C@@H](NC(=O)[C@@H](NC(=O)[C@H](NC(=O)CCCCCCC)C(C)C)[C@@H](C)O)C(C)C)C(C)C)[C@H](C)CC)[C@H](C)OC(=O)[C@H](C(C)C)NC1=O was 3.00

# log10 of GI50 (molecule: C/C=C1\NC(=O)[C@H](Cc2ccccc2)NC(=O)[C@@H](C(C)C)NC(=O)[C@@H]([C@H](C)CC)NC(=O)[C@H](NC(=O)[C@H](NC(=O)[C@H](CCCN)NC(=O)[C@H]2CCCN2C(=O)[C@H](NC(=O)[C@H](C)NC(=O)[C@@H](NC(=O)[C@H](NC(=O)CCCC(C)C)C(C)C)[C@@H](C)O)C(C)C)[C@H](C)CC)[C@H](C)OC(=O)[C@H](C(C)C)NC1=O ) is 3.64

The molecule listed as C/C=C1\NC(=O)[C@H](Cc2ccccc2)NC(=O)[C@@H](C(C)C)NC(=O)[C@@H]([C@H](C)CC)NC(=O)[C@H](NC(=O)[C@H](NC(=O)[C@H](CCCN)NC(=O)[C@H]2CCCN2C(=O)[C@H](NC(=O)[C@@H](NC(=O)[C@@H](NC(=O)[C@H](NC(=O)c2ccccc2)C(C)C)[C@@H](C)O)C(C)C)C(C)C)[C@H](C)CC)[C@H](C)OC(=O)[C@H](C(C)C)NC1=O has a reported log10 of GI50 of 2.63

Just for reference, ChEMBL document CHEMBL1156597 is where these values come from.
